Below, IC50 values reported for UniProtKB Q96GD4 across several publications.

NC(=O)[C@H]1[C@@H]2CC3CNCCc4cccc(c4)Nc4ncc(F)c(n4)N[C@@H]1[C@@H]3C2 (stereo partly shown)
1 to 100 nM
CC(=O)N1CCN(c2ccc(Nc3nccc(-c4c[nH]c5cc(F)ccc45)n3)cc2)CC1
175 nM
COc1cc2c(Oc3ccc(NC(=O)Nc4ccc(C(F)(F)F)cc4)cc3F)ccnc2cc1OCCC[C@@H](N)C(=O)O
< 2000 nM

Shifting focus to the compound that follows.
Short answer for NC(=O)[C@H]1[C@H]2C[C@H]3[C@H]1Nc1nc(ncc1F)Nc1ccc4c(c1)N(CC4)C(=O)CS[C@@H]3C2 : IC50 was 101 to 1000 nM

----------
pIC50: −log10 of the molar value.
Below, pIC50 values reported for Aurora kinase B (Homo sapiens, UniProt Q96GD4) across several publications.

Worked examples follow.
Cc1cc(Nc2ccnc(CN3C[C@@H]4C[C@H]3CN4C(=O)c3cccc(Cl)c3F)n2)n[nH]1
6.16
Cc1cc(=O)[nH]c2nccc(Nc3ccc(NC(=O)c4ccc(F)cc4C(F)(F)F)cc3)c12
6.52 to 9.00
NC(=O)c1cccc2c(N[C@H](CN3CCC3)c3ccc(Br)cc3)ncnc12
7.19

# batch size: 7; output pIC50 per entry
1. COc1cc2c(Oc3ccc(NC(=O)c4ccc(C(F)(F)F)cc4)cc3)ccnc2cc1OCC[C@H](N)C(=O)O
2. Cn1cc(Nc2ncc(Cl)c(N[C@@H]3COC4C3OC[C@@H]4NS(=O)(=O)CC3CCCC3)n2)cn1 (stereo partly drawn)
3. CN1CCN(c2ccc3cc2OCCN(C)[C@@H]2C[C@@H]4C[C@H]2[C@@H](Nc2nc(ncc2F)N3)[C@H]4C(N)=O)CC1
4. COC(=O)c1cccc(-c2nc(Nc3cc(C)[nH]n3)cc(N3CCN(C)CC3)n2)c1
5. O=CN1CCC(Oc2ccc(-c3n[nH]c4ccc(C(=O)N[C@@H](c5ccccn5)C5CC5)cc34)cc2)CC1
6. O=C1Nc2ccccc2C1=Cc1ccc2c(CCc3ccncc3)n[nH]c2c1 (mixture of isomers)
7. CN1CCC(Oc2ccc(-c3n[nH]c4ccc(C(=O)NC(c5ccsc5)C5CC5)cc34)cc2)CC1 (stereo not drawn)

["> 5.70", 8.22, "7.00 to 9.00", "≥ 6.00", "≥ 5.30", "> 5.30", "≥ 5.30"]

# batch size: 4; output pIC50 per entry
1. NC(=O)[C@H]1[C@@H]2C[C@H]3CNS(=O)(=O)c4cccc(c4)Nc4ncc(F)c(n4)N[C@@H]1[C@@H]3C2
2. CN1CCC(c2ccc3cc2OCCS[C@@H]2C[C@@H]4C[C@H]2[C@@H](Nc2nc(ncc2F)N3)[C@H]4C(N)=O)CC1
3. Cc1ccccc1C(NC(=O)c1ccc2[nH]nc(-c3ccc(N4CCOCC4)cc3)c2c1)C1CC1 (stereo not drawn)
4. Nc1ncc(-c2cnn(CCO)c2)c2scc(-c3ccc(NC(=O)Nc4ccc(OC(F)F)cc4)cc3)c12

1: 7.00 to 9.00; 2: 7.00 to 9.00; 3: ≥ 5.30; 4: 8.10

Short answer for Cc1cc(Nc2cc[nH]n2)nc(N2C[C@@H]3[C@@H](C2)OCCN3C(=O)O[C@@H](C)C(F)(F)F)n1 : pIC50 was 7.07
